Test system: Rattus norvegicus
testDescription: Dose normalized AUC in Sprague-Dawley rat at 3 mg/kg, po
Format: ADME, organism-based
measurementSetup: in vivo
propertyMeasured: AUC/dose (µmol·h/L)

Example entries and their recorded answers appear below.
molecule	AUC/dose / µmol·h/L
CCc1nn2c(C)cc(C)nc2c1Cc1ccc(-c2nnc(C3CCNCC3)o2)cc1	6.7
CCc1nn2c(C)cc(C)nc2c1Cc1ccc(CCC(O)C2CCNCC2)cc1 (stereo not drawn)	0.49

[A] CCc1nn2c(C)cc(C)nc2c1Cc1ccc(/C=C/CN2CCN(C(C)C)CC2)cc1
[B] CCc1nn2c(C)cc(C)nc2c1Cc1ccc(CCCC2(O)CCNCC2)cc1
Data request: Please indicate which entry, A or B , has the lower recorded AUC/dose value. Your choice should be expressed through its label.
Data returned: B

[P] CCc1nn2c(C)cc(C)nc2c1Cc1ccc(CCCN2CCN(C(C)C)CC2)cc1
[Q] CCc1nn2c(C)cc(C)nc2c1Cc1ccc(/C=C/CN2CCN(C[C@@H](O)CO)CC2)cc1
[R] CCc1nn2c(C)cc(C)nc2c1Cc1ccc(/C=C/CN2CCNC(=O)C2)cc1
Data request: I would appreciate it if you could sort these 3 molecules by AUC/dose, starting from the smallest number. Returns: the labels arranged in the requested order.
Data returned: P, Q, R
